Cited source for all entries: patent US20260317324A1

# experimental.system: BRAF D594G (Homo sapiens, UniProt P15056, D594G)
# Construct: Horizon Discovery (HCT-116 BRAF−/− cells); host or cells: HCT-116 BRAF−/− cells, clone 63, lentiviral transduction
# Sequence (P15056 whole entry D594G): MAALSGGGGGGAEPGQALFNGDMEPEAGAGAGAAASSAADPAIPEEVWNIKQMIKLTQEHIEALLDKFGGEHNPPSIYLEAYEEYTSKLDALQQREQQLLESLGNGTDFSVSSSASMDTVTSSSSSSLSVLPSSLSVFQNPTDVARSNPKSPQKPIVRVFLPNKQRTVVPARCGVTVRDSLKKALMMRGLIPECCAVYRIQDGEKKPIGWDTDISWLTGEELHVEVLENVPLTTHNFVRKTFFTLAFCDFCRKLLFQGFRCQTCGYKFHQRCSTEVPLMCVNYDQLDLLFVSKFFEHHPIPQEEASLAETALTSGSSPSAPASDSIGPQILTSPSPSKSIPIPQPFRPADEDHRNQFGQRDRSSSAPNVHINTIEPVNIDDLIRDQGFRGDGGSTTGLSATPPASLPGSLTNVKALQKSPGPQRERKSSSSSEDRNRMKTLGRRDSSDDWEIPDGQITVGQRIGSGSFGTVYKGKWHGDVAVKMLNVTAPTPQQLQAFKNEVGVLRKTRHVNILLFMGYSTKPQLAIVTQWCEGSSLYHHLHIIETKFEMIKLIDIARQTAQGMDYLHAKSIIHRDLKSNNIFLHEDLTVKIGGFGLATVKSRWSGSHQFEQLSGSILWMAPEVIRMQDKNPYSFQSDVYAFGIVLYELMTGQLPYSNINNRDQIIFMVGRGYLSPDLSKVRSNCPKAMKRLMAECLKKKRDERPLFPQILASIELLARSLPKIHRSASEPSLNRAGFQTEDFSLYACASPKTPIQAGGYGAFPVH
# procedure.text: BRAF HiBiT degradation assay, C-terminal HiBiT-tagged BRAF D594G overexpressed in HCT-116 BRAF−/− cells (clone 63), Nano-Glo HiBiT Lytic assay
# Format: cell-based
# assay.conditions: BRAF D594G (Class 3), HCT-116 BRAF−/− cells; DC50 at 50% degradation
DC50 overview

1) O=C1CCC(c2ccc(N3CCC(CN4CCN(c5ccc(-n6cc(-c7cc(Cl)cc(NS(=O)(=O)N8CCCC8)c7F)c(-c7ccncc7)n6)cc5)CC4)CC3)c(F)c2F)C(=O)N1 (racemic) [Compound 385]: < 10 nM
2) CCCS(=O)(=O)Nc1cccc(-c2nc(C3CCC4(CC3)CCN(CC3CCN(c5ccc6c(c5)CN(C5CCC(=O)NC5=O)C6=O)CC3)CC4)sc2-c2ccnc(N)n2)c1F (racemic) [Compound 258]: > 500 nM

Now for the compound whose DC50 we want.
Please look at CCCS(=O)(=O)Nc1cccc(-c2nc(C3CCN(C(=O)C4CCN(CC5CCN(c6ccc(C7CCC(=O)NC7=O)cn6)CC5)CC4)CC3)sc2-c2ccnc(N)n2)c1F (racemic) [Compound 261] and tell me its recorded DC50 on BRAF D594G (Homo sapiens, UniProt P15056, D594G). > 500 nM

* * *

# experimental.system: BRAF G466V (Homo sapiens, UniProt P15056, G466V)
# Construct: Horizon Discovery (HCT-116 BRAF−/− cells); host or cells: HCT-116 BRAF−/− cells, clone 8, lentiviral transduction
# Sequence (P15056 whole entry G466V): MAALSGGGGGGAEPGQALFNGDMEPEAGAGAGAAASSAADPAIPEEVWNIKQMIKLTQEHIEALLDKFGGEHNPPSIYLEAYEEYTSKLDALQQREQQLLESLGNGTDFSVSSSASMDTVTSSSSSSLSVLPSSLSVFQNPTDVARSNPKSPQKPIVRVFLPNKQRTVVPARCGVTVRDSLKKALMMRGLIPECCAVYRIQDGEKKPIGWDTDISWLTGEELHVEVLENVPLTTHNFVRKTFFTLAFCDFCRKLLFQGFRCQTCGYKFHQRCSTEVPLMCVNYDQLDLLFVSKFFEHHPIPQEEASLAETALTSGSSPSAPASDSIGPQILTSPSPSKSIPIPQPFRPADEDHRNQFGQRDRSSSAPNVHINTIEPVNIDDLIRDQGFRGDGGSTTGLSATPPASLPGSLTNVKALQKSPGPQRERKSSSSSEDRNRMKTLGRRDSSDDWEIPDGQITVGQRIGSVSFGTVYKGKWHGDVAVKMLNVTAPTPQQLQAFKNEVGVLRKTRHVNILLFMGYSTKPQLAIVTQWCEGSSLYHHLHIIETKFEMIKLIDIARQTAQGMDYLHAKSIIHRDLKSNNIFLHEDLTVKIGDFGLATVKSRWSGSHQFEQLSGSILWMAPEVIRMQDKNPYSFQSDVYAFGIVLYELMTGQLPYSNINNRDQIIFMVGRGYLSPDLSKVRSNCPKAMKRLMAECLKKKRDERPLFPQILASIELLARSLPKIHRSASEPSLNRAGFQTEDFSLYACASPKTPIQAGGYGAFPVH
# procedure.text: BRAF HiBiT degradation assay, C-terminal HiBiT-tagged BRAF G466V overexpressed in HCT-116 BRAF−/− cells (clone 8), Nano-Glo HiBiT Lytic assay
# Assay type: cell-based
# assay.conditions: BRAF G466V (Class 3), HCT-116 BRAF−/− cells; observed Dmax relative to DMSO control
result.type: Dmax

1. CCCS(=O)(=O)Nc1cccc(-c2nc(C3CCC4(CC3)CCN(CC3CCN(c5ccc(C6CCC(=O)NC6=O)cn5)CC3)CC4)sc2-c2ccnc(N)n2)c1F (racemic) [Compound 260]: < 30%
2. O=C1CCC(c2ccc(N3CCC(CN4CCN(c5ccc(-n6cc(-c7cc(F)cc(NS(=O)(=O)N8CC[C@@H](F)C8)c7F)c(-c7ccncc7)n6)nc5)CC4)CC3)nc2)C(=O)N1 (mixture of isomers) [Compound 304]: > 70%

Here is another molecule to look at.
Name the recorded Dmax of the molecule listed here: CCCS(=O)(=O)Nc1cc(Cl)cc(-c2cn(-c3ccc(N4CCN(CC5CCN(c6ccc([C@H]7CCC(=O)NC7=O)cc6)CC5)[C@H](C)C4)cc3)nc2-c2ccncc2)c1F [Compound 275] > 70%

* * *

# experimental.system: BRAF G469A (Homo sapiens, UniProt P15056, G469A)
# Construct: Horizon Discovery (HCT-116 BRAF−/− cells); host or cells: HCT-116 BRAF−/− cells, clone 34, lentiviral transduction
# Sequence (P15056 whole entry G469A): as the sequence (P15056 whole entry G466V) above, with V466G, G469A counted along it
# procedure.text: BRAF HiBiT degradation assay, C-terminal HiBiT-tagged BRAF G469A overexpressed in HCT-116 BRAF−/− cells (clone 34), Nano-Glo HiBiT Lytic assay
# Assay type: cell-based
# assay.conditions: BRAF G469A (Class 2), HCT-116 BRAF−/− cells; observed Dmax relative to DMSO control
# Procedure: An A375 cell line expressing a homozygous V600E mutation was purchased from ATCC (Manassas, VA, USA). […] HiBiT signal was measured by a Nano-Glo HiBiT Lytic assay (Promega cat. no. N3050). […] Luminesce units (LU) were read on an EnVision plate reader 2105 (Perkin Elmer). Percent protein remaining and viability remaining per sample were calculated as follows: […]
result.type: Dmax

Give me measured Dmax, please, for this compound: C[C@@H]1CN(c2ccc(-n3cc(-c4cc(Cl)cc(NS(=O)(=O)N5CCCC5)c4F)c(-c4ccncc4)n3)nc2)CCN1CC1CCN(c2ccc([C@H]3CCC(=O)NC3=O)cn2)CC1 > 70%

* * *

# experimental.system: BRAF G469A (Homo sapiens, UniProt P15056, G469A)
# Construct: Horizon Discovery (HCT-116 BRAF−/− cells); host or cells: HCT-116 BRAF−/− cells, clone 34, lentiviral transduction
# procedure.text: BRAF HiBiT degradation assay, C-terminal HiBiT-tagged BRAF G469A overexpressed in HCT-116 BRAF−/− cells (clone 34), Nano-Glo HiBiT Lytic assay
# Assay type: cell-based
# assay.conditions: HCT-116; Class 2; BRAF G469A; percentage protein degraded at maximal compound effect relative to DMSO
Below: a set of entries, each annotated with reported Dmax.

Specify Dmax for CCCS(=O)(=O)Nc1cccc(-c2nc(C(C)(C)C)sc2-c2ccnc(NC3CC4(C3)CN(C(=O)CN3CCC5(CC3)CN(c3ccc6c(c3)C(=O)N(C3CCC(=O)NC3=O)C6=O)C5)C4)n2)c1F (racemic) and stop. < 30%

Tell us which Dmax value is on record for CCN(C)S(=O)(=O)Nc1cccc(-c2nc(C(C)(C)C)sc2-c2ccnc(Nc3ccc(N4CCN(CC5CCN(c6ccc(C7CCC(=O)NC7=O)cn6)CC5)CC4)cn3)n2)c1F (racemic) 30 to 70%

Look up Dmax of CCCS(=O)(=O)Nc1cccc(-c2nc(C(C)(C)C)sc2-c2ccnc(Nc3ccc(N4CCN(C(=O)C5CCN(c6ccc(C7CCC(=O)NC7=O)cc6)CC5)CC4)c(F)c3)n2)c1F (racemic) and report it. 30 to 70%

Let me know recorded Dmax for CCCS(=O)(=O)Nc1cccc(-c2nc(C3CCN(C(=O)C4CCN(C(=O)C5CCN(c6ccc(C7CCC(=O)NC7=O)cn6)CC5)CC4)CC3)sc2-c2ccncn2)c1F (racemic) , thanks. 30 to 70%

Hello, please tell me recorded Dmax for this one: CCCS(=O)(=O)Nc1cccc(-c2nc(C(C)(C)C)sc2-c2ccnc(Nc3ccc(N4CCN(C(=O)CC5CCN(c6ccc(C7CCC(=O)NC7=O)cn6)CC5)CC4)c(F)c3)n2)c1F (racemic) < 30%

* * *

# experimental.system: BRAF V600E (Homo sapiens, UniProt P15056, V600E)
# Construct: endogenous C-terminal HiBiT fusion tag on BRAF V600E allele; endogenous in cells; host or cells: A375 clone 1F10 (CRISPR-Cas9 knock-in of the HiBiT tag; parental A375 from ATCC)
# Sequence (P15056 whole entry V600E, the tested form may be a part): as the sequence (P15056 whole entry G466V) above, with V466G, V600E counted along it
# procedure.text: BRAF HiBiT degradation assay, C-terminal HiBiT-tagged BRAF V600E A375 cells (clone 1F10), Nano-Glo HiBiT Lytic assay
# Type: cell-based
# assay.conditions: A375 (BRAF V600E); DC50 at 50%: fitted conc. at Y=50
result.type: DC50

1) CCCS(=O)(=O)Nc1cccc(-c2nc(C3CCN(C(=O)C4CCN(C(=O)CC5CCN(c6ccc(C7CCC(=O)NC7=O)cn6)CC5)CC4)CC3)sc2-c2ccnc(N)n2)c1F (racemic): < 0.01 µM
2) CCCS(=O)(=O)Nc1cccc(-c2cn(-c3ccc(N4CCN(CC5CCN(c6ccc([C@@H]7CCC(=O)NC7=O)cc6)CC5)CC4)nc3)nc2-c2ccncc2)c1F: 0.01 to 0.05 µM
3) CCCS(=O)(=O)Nc1cccc(-c2nc(C3CCC4(CC3)CN(C(=O)CCCCCc3ccc5c(c3)C(=O)N(C3CCC(=O)NC3=O)C5)C4)sc2-c2ccnc(N)n2)c1F (racemic): < 0.01 µM
4) CCCS(=O)(=O)Nc1cccc(-c2nc(C(C)(C)C)sc2-c2ccnc(Nc3ccc(C4CCN(C(=O)CCCC(=O)N[C@H](C(=O)N5C[C@H](O)C[C@H]5C(=O)N[C@@H](C)c5ccc(-c6scnc6C)cc5)C(C)(C)C)CC4)cc3)n2)c1F: 0.05 to 0.5 µM
5) CCCS(=O)(=O)Nc1cccc(-c2cn(C3CCN(C(=O)C4CCN(CC5CCN(c6ccc(C7CCC(=O)NC7=O)cn6)CC5)CC4)CC3)nc2-c2ccncc2)c1F (racemic): 0.01 to 0.05 µM
6) CCCS(=O)(=O)Nc1cccc(-c2nc(C(C)(C)C)sc2-c2ccnc(Nc3ccc(C4CCN(C(=O)C5CCN(c6cc(C7CCC(=O)NC7=O)ccn6)CC5)CC4)cc3)n2)c1F (racemic): 0.05 to 0.5 µM
7) CCN(C)S(=O)(=O)Nc1cccc(-c2nc(C)sc2-c2ccnc(Nc3ccc(N4CCN(CC5CCN(c6ccc(C7CCC(=O)NC7=O)cn6)CC5)CC4)cn3)n2)c1F (racemic): < 0.01 µM
8) CCCS(=O)(=O)Nc1cccc(-c2nc(C3CCN(C(=O)C4CCN(C(=O)C5CCN(c6ccc(C7CCC(=O)NC7=O)cn6)CC5)CC4)CC3)sc2-c2ccnc(N[C@H](C)CO)n2)c1F (mixture of isomers): < 0.01 µM

Query DC50 for CCCS(=O)(=O)Nc1cccc(-c2nc(C(C)(C)C)sc2-c2ccnc(Nc3ccc(N4CCN(C(=O)C5CCN(c6ccc(C7CCC(=O)NC7=O)cn6)CC5)CC4)c(F)c3)n2)c1F (racemic) < 0.01 µM

Assign DC50 to the following record: CCCS(=O)(=O)Nc1cccc(-c2nc(C(C)(C)C)sc2-c2ccnc(NC[C@H]3CCN(CC4CCN(c5ccc(C(=O)N[C@H]6CCC(=O)NC6=O)nc5)CC4)C3)n2)c1F 0.05 to 0.5 µM
